These data points were gathered from the Human Domainome abundance scans (Beltran et al. 2025).

B1: Activity-dependent neuroprotector homeobox protein, residues 770 to 810; numbered along this chain, Q9H2P0 (parent)
chain: FLTKYFNKQPYPTRREIEKLAASLWLWKSDIASHFSNKRKK

variants of: B1; assay: abundance fitness (aPCA) (normalised: wild type 0, dead -1); higher = more abundant; growth selection in yeast, the domain comes from the species named; settings: Homo sapiens
Consider the following variants; for each one, report its abundance fitness.
Answers are plain numbers.

Look over these answered cases.
1. FLTKYFNKQPYPTRREIEKLAASLWLWKSRIASHFSNKRKK ... -0.026
2. FLTKYFNKQPYPTRREIEKLAASLWCWKSDIASHFSNKRKK ... -0.014
3. FLTKYFNKQPYPTRREIEKLAASLWLWKSDIASHFSNKRKM ... 0.082
4. FLTKYFNKQPYPTRREIEKPAASLWLWKSDIASHFSNKRKK ... -0.124
5. FLTKYFNKQPYPTRREIEKLAASLWLWKHDIASHFSNKRKK ... 0.077
6. FLTKYFNKQPYPTRREIEKLAASLWLWKSDIASHFSNKGKK ... -0.195
7. FLTKYFNKQPYPTRREIEKLAASLWLWKSDIASHFSEKRKK ... -0.142
8. FLTKYFNKQPYPTRRMIEKLAASLWLWKSDIASHFSNKRKK ... -0.04
9. FLTKYFNKQPYPTRREIEKLAASLWLWKSDIASHFSNTRKK ... -0.229
10. GLTKYFNKQPYPTRREIEKLAASLWLWKSDIASHFSNKRKK ... -0.574

Pending variant:
May I ask what abundance fitness has been recorded for `FLTKYFNKQPYPTRREIEKLAASLWLWKSDFASHFSNKRKK` ? -0.197
